Reported Cmax values are given for each entry in this list.
- assayExplanation: In vivo pharmacokinetics in mice, intravenous injection and oral administration
- Set-up: species or system mouse
- studyConditions: mouse; male CD1 mice, oral administration 10 mg/kg, plasma

compound	Cmax
CC1(C)C(=O)N(c2ccc(C#N)c(Cl)c2)c2ccc(-c3ccc(N4CC(CN5CCN(c6ccc7c(c6)C(=O)N(C6CCC(=O)NC6=O)C7=O)CC5)C4)nc3F)cc21 (stereo not drawn)	2650 ng/mL

[ask] So what does the record say about Cmax for CC1(C)[C@H](NC(=O)c2ccc(N3CCC(CN4CCN(c5ccc6c(c5)C(=O)N(C5CCC(=O)NC5=O)C6=O)CC4)CC3)cc2)C(C)(C)[C@H]1Oc1ccc(C#N)c(Cl)c1 (stereo partly drawn) [Reference substance 1, reference compound] ?
[reply] 1420 ng/mL

[ask] So what does the record say about Cmax for CC1(C)C(=O)N(c2ccc(C#N)c(Cl)c2)c2ccc(-c3ncc(N4CC(CN5CCN(c6ccc7c(c6)C(=O)N(C6CCC(=O)NC6=O)C7=O)CC5)C4)cn3)cc21 (stereo not drawn) ?
[reply] 2920 ng/mL

* * *

- assayExplanation: In vivo pharmacokinetics in mice, intravenous injection and oral administration
- Design: species or system mouse
- studyConditions: mouse; male CD1 mice, intravenous administration 1 mg/kg, plasma
- Experimental: In this experimental example, in vivo pharmacokinetics in mice were evaluated by intravenous injection and oral administration. […]
Reported AUC(0-inf) values are given for each entry in this list.
Write the answer as a number in ng·h/mL, unit excluded.

molecule	unitOfMeasure	value
CC1(C)[C@H](NC(=O)c2ccc(N3CCC(CN4CCN(c5ccc6c(c5)C(=O)N(C5CCC(=O)NC5=O)C6=O)CC4)CC3)cc2)C(C)(C)[C@H]1Oc1ccc(C#N)c(Cl)c1 (stereo partly drawn) [Reference substance 1, reference compound]	ng·h/mL	5360
CC1(C)C(=O)N(c2ccc(C#N)c(Cl)c2)c2ccc(-c3ncc(N4CC(CN5CCN(c6ccc7c(c6)C(=O)N(C6CCC(=O)NC6=O)C7=O)CC5)C4)cn3)cc21 (stereo not drawn)	ng·h/mL	9860

Okay, next one:
[ask] So what does the record say about AUC(0-inf) for CC1(C)C(=O)N(c2ccc(C#N)c(Cl)c2)c2ccc(-c3ccc(N4CC(CN5CCN(c6ccc7c(c6)C(=O)N(C6CCC(=O)NC6=O)C7=O)CC5)C4)nc3F)cc21 (stereo not drawn) ?
[reply] 10400

* * *

Reported half-life values are given for each entry in this list.
- assayExplanation: In vivo pharmacokinetics in mice, intravenous injection and oral administration
- Design: species or system mouse
- studyConditions: mouse; male CD1 mice, oral administration 10 mg/kg, plasma

Recorded results for 2 compounds are shown here.
compound	half-life
CC1(C)[C@H](NC(=O)c2ccc(N3CCC(CN4CCN(c5ccc6c(c5)C(=O)N(C5CCC(=O)NC5=O)C6=O)CC4)CC3)cc2)C(C)(C)[C@H]1Oc1ccc(C#N)c(Cl)c1 (stereo partly drawn) [Reference substance 1, reference compound]	864 min
CC1(C)C(=O)N(c2ccc(C#N)c(Cl)c2)c2ccc(-c3ncc(N4CC(CN5CCN(c6ccc7c(c6)C(=O)N(C6CCC(=O)NC6=O)C7=O)CC5)C4)cn3)cc21 (stereo not drawn)	672 min

[ask] So what does the record say about half-life for CC1(C)C(=O)N(c2ccc(C#N)c(Cl)c2)c2ccc(-c3ccc(N4CC(CN5CCN(c6ccc7c(c6)C(=O)N(C6CCC(=O)NC6=O)C7=O)CC5)C4)nc3F)cc21 (stereo not drawn) ?
[reply] 1070 min

FYI, the data here is from patent US12441706B2.
